- Test system: MC3T3-E1 (mouse calvarial) osteoblast cells
- EXPERIMENTAL DETAILS: Bone formation assay: rescue of sclerostin inhibition of mineralization (calcium concentration)
- Format: cell-based
- TEST CONDITIONS: Mus musculus, MC3T3-E1, IC100 class, read-out: Sclerostin Inhibition of Mineralization, improvement over sclerostin alone
MEASURE: IC100

A selection of reference data follows.
| MOLECULE | TARGET DESC | IC100 |
| --- | --- | --- |
| COc1cc2c(cc1F)c1ccnc(C(F)(F)F)c1n2CCN1C2CCC1COC2.Cl [Example 7, Hydrochloride Salt] | MC3T3-E1 (mouse calvarial) osteoblast cells | < 10 µM |
| COc1cc2c(cc1F)c1ccnc(C(F)(F)F)c1n2CCN1CCC(OC)C1.Cl (stereo not drawn) [Example 10, Hydrochloride Salt] | MC3T3-E1 (mouse calvarial) osteoblast cells | < 10 µM |

For COc1ccc2c3ccnc(C(F)(F)F)c3n(CCN3CCOCC3)c2c1F.Cl [Example 1, Hydrochloride Salt] , write its IC100.
> 10 µM

For COc1cc2c(cc1F)c1ccnc(C(F)(F)F)c1n2CCN1CCN(C)C(=O)C1.Cl [Example 4, Hydrochloride Salt] , write its IC100.
> 10 µM

For COc1cc2c(cc1F)c1ccnc(C(F)(F)F)c1n2CCN1CC(OC(F)F)C1.Cl [Example 5, Hydrochloride Salt] , write its IC100.
< 10 µM

For COc1cc2c(cc1F)c1ccnc(C(F)(F)F)c1n2CCN1CC2CC1CO2.Cl (stereo not drawn) [Example 8, Hydrochloride Salt] , write its IC100.
< 10 µM

* * *

- TARGET DESC: sclerostin (Homo sapiens)
- Construct: host or cells: human embryonic cells (the assay cells)
- Sequence (Q9BQB4 24-213): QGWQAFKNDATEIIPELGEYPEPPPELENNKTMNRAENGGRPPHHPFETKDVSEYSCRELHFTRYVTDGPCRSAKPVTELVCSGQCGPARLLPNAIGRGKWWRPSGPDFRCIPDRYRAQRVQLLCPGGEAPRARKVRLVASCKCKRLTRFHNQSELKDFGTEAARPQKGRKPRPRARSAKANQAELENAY
- EXPERIMENTAL DETAILS: Modulation of sclerostin/Wnt activity: restoring Wnt3a signaling in the presence of sclerostin
- Type: cell-based
- Design: key: − indicates no improvement over sclerostin protein alone; + indicates an IC100 >10 μM; ++ indicates an IC100 <10 μM
- TEST CONDITIONS: IC100 class; Wnt3a signaling in human embryonic cells in presence of sclerostin
MEASURE: Sclerostin Inhibition Assay; improvement over sclerostin alone

| SMILES STR | DATA VALUE |
| --- | --- |
| COc1cc2c(cc1F)c1ccnc(C(F)(F)F)c1n2CCN1CCC(F)(F)CC1.Cl | − |
| COc1cc2c(cc1F)c1ccnc(C(F)(F)F)c1n2CCn1cncn1.Cl | − |
